Provide the recorded growth for the entries that follow.
System: SK-MEL-28 melanoma
Assay: NCI-60 one-dose screen, 48 h (100 = growth as untreated, 0 = no growth, -100 = all killed)
Settings: 10 µM unless noted
The panel holds about 83,000 compounds, 20% with a hit somewhere; the sample as a whole holds those more often.
All answers are understood in %, so give the number only.

Report growth for "COc1ccc(N)cc1C(=O)Nc1cccc(-c2cc(=O)c3c(OC)c(OC)c(OC)cc3o2)c1" please. 86.6

I have this compound here, "CCOC(=O)c1c(NCC(=O)Nc2ccc(Br)cc2)sc2c1CCCC2" , and I need its recorded growth. 67.6

Need growth of "N#C/C(=C\c1ccc(Cl)cc1Cl)C(N)=O" , thanks. 112

Requested read-out: growth. Entry: "Oc1ccc(CSc2nnc(-c3ccc(Br)cc3)o2)c2cccnc12" 32.8

Which growth value is on record for "COc1ccc(OC)c(NC2=C(Cl)C(=O)C(C)=C(C)C2=O)c1" ? 108

# query: growth of entry "NS(=O)(=O)Oc1ccc2nc(Nc3ccc(F)c(F)c3)ccc2c1" 98.5

Give its growth value. Item: CCOC(=O)/C=c1\sc2n(c1=O)C1C(NN=2)N(CC)C(=O)N1CC (stereo unspecified) 71.9

Entry under review: "COc1ccc(-c2nnc(/N=C3/C(=O)Nc4ccc(Br)cc43)o2)cc1" . Reported growth? 102

growth for "CN1CCN(c2ccc(NC(=O)Nc3ccc4c(ccn4-c4cccc(C(N)=O)n4)c3)cc2C(F)(F)F)CC1" ? -53.6

Need growth of "O=C(CCCCCCN1CC(=O)N2[C@@H](c3cccc(Br)c3)c3[nH]c4ccccc4c3C[C@H]2C1=O)NO" , thanks. 26.6

growth for "Cc1cnc2nc(NN)[nH]n12" ? 108

src = PubChem BioAssay (NCI)
